Just for reference, ChEMBL document CHEMBL4706640 is where these values come from.

experimental-details: Cmax in Wistar Han rat at 10 mg/kg, po
Format: ADME, organism-based
Set-up: route oral, dose 10 mg/kg
recorded-conditions: in vivo
property: Cmax (ng/mL)
Write the value in ng/mL as a bare number.

Give me measured Cmax, please, for this compound: Nc1ncc(-c2nc(N3CCOCC3)nc(N[C@@]3(CO)CCN(C(=O)OCC(F)F)C3)c2F)cn1
330

* * *

experimental-details: Half life in Wistar Han rat at 2 mg/kg, iv
Type: ADME, organism-based
recorded-conditions: in vivo
property: half-life (h)
Write the value in h as a bare number.

Give me measured half-life, please, for this compound: Nc1ncc(-c2nc(N3CCOCC3)nc(N[C@@]3(CO)CCN(C(=O)OCC(F)F)C3)c2F)cn1
3.6

* * *

experimental-details: Thermodynamic solubility of compound at pH 7.4
Type: physicochemical
recorded-conditions: buffer, read-out: Therm_solubility
The entries below come with measured solubility thermodynamic values attached.
Write the value in µg/mL as a bare number.

compound-smiles	property	result
Nc1ncc(-c2nc(N3CCOCC3)nc(N[C@@]3(COP(=O)(O)O)CCN(C(=O)OCC(F)F)C3)c2F)cn1	solubility thermodynamic	6200

Here is another compound to look at.
Give me measured solubility thermodynamic, please, for this compound: Nc1ncc(-c2nc(N3CCOCC3)nc(N[C@@]3(CO)CCN(C(=O)OCC(F)F)C3)c2F)cn1
6.2

* * *

system-tested: PI3K p110 beta/p85 alpha (Homo sapiens)
Sequence (P27986 whole entry): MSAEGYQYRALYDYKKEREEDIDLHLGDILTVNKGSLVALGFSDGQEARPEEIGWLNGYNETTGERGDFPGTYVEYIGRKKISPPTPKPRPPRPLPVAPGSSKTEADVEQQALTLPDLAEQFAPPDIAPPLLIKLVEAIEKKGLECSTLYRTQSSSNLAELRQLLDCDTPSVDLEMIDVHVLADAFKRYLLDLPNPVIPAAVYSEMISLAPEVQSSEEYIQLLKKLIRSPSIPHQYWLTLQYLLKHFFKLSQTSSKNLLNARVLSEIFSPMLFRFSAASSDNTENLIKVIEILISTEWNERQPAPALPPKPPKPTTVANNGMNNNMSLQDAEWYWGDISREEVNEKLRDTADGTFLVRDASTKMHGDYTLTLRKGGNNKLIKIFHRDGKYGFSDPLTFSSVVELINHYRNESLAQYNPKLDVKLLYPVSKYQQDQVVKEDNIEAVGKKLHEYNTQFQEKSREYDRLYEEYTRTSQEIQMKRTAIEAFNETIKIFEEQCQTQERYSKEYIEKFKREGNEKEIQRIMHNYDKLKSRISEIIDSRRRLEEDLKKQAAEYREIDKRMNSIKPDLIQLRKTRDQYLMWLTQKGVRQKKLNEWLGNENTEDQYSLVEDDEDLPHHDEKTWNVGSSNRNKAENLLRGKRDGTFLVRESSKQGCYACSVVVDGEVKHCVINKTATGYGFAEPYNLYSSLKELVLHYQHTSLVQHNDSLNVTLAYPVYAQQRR
Sequence (P42338 whole entry): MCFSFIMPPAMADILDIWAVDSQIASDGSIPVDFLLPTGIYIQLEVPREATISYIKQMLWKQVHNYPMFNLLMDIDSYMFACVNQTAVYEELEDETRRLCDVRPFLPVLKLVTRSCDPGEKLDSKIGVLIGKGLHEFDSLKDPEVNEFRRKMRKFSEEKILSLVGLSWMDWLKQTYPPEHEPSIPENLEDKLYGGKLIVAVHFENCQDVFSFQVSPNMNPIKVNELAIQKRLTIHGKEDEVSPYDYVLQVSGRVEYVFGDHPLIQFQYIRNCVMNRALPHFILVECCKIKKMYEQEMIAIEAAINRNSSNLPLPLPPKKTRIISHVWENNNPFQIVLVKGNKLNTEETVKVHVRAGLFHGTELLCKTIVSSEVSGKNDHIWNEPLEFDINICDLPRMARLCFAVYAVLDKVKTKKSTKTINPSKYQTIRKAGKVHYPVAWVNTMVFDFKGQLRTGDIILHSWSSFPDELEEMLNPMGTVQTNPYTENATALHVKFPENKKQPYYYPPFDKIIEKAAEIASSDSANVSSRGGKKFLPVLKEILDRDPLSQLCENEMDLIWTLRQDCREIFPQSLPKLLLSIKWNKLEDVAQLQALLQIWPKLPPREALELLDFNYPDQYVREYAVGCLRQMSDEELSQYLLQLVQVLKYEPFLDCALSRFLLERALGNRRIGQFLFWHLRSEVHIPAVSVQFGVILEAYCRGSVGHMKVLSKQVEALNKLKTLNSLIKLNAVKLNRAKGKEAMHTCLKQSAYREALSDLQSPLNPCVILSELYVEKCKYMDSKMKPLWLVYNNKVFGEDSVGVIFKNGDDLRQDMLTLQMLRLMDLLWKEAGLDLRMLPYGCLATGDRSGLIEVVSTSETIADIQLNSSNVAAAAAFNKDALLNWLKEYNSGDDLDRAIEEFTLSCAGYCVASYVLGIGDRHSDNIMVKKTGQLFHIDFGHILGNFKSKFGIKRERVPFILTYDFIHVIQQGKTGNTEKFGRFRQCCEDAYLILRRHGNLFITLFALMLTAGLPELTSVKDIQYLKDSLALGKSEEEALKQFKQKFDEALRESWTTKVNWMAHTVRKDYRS
experimental-details: Inhibition of recombinant human PI3K p110beta/p85alpha using phosphatidylinositol 4,5-bisphosphate as substrate preincubated for 15 mins followed by addition of ATP and measured after 30 mins by fluorescence polarisation assay
The entries below come with measured Ki values attached.
Write the value in nM as a bare number.

Sample answers from the record:
compound-smiles	Ki (nM)
CC(C)C(=O)N1CC[C@](CO)(Nc2cc(-c3cnc(N)nc3)nc(N3CCOCC3)n2)C1	19
CC(C)(C)OC(=O)N1CC[C@](C)(N2CCc3c(-c4cnc(N)nc4)nc(N4CCOCC4)nc32)C1	25
CC(=O)N1CC[C@H](N2CCc3c(-c4cnc(N)nc4)nc(N4CCOCC4)nc32)C1	20
CS(=O)(=O)N1CC[C@](CO)(Nc2cc(-c3cnc(N)nc3)nc(N3CCOCC3)n2)C1	11
CNS(=O)(=O)N1CC[C@H](N2CCc3c(-c4cnc(N)nc4)nc(N4CCOCC4)nc32)C1	16

State measured Ki of the molecule CC(C)(O)C(=O)N1CC[C@](C)(N2CCc3c(-c4cnc(N)nc4)nc(N4CCOCC4)nc32)C1 with PI3K p110 beta/p85 alpha (Homo sapiens).
46

State measured Ki of the molecule CC(C)(C)OC(=O)N1CC[C@](CO)(Nc2cc(-c3cnc(N)nc3)nc(N3CCOCC3)n2)C1 with PI3K p110 beta/p85 alpha (Homo sapiens).
54

State measured Ki of the molecule CC(C)(C)OC(=O)N1CC[C@](C)(Nc2cc(-c3cnc(N)nc3)nc(N3CCOCC3)n2)C1 with PI3K p110 beta/p85 alpha (Homo sapiens).
68

State measured Ki of the molecule Nc1ncc(-c2ccnc(N3CCOCC3)n2)cn1 with PI3K p110 beta/p85 alpha (Homo sapiens).
15

* * *

experimental-details: Distribution coefficient, logD of compound at pH 7.4
Assay type: physicochemical
recorded-conditions: octanol/water
property: logD

Sample answers from the record:
compound-smiles	property	result
CNS(=O)(=O)N1CC[C@H](N2CCc3c(-c4cnc(N)nc4)nc(N4CCOCC4)nc32)C1	logD	1.4
CC(C)C(=O)N1CC[C@](CO)(Nc2cc(-c3cnc(N)nc3)nc(N3CCOCC3)n2)C1	logD	1.4
COC(=O)N1CC[C@](C)(N2CCc3c(-c4cnc(N)nc4)nc(N4CCOCC4)nc32)C1	logD	2.6

Give me measured logD, please, for this compound: CC(C)C(=O)N1CC[C@](C)(N2CCc3c(-c4cnc(N)nc4)nc(N4CCOCC4)nc32)C1
2.4

Give me measured logD, please, for this compound: CC(C)(O)C(=O)N1CC[C@](C)(N2CCc3c(-c4cnc(N)nc4)nc(N4CCOCC4)nc32)C1
2

* * *

experimental-details: Kinetic solubility of compound
Format: physicochemical
recorded-conditions: read-out: Kinetic_solubility
Outcome label depends on solubility kinetic relative to 500 µM: at/above gives 1, below gives 0.

Use the examples below as a reference point.
compound-smiles	class
CC(=O)N1CC[C@@](C)(N2CCc3c(-c4cnc(N)nc4)nc(N4CCOCC4)nc32)C1	1
CC(=O)N1CC[C@H](N2CCc3c(-c4cnc(N)nc4)nc(N4CCOCC4)nc32)C1	1
CC(C)C(=O)N1CC[C@](CO)(Nc2cc(-c3cnc(N)nc3)nc(N3CCOCC3)n2)C1	1

Tell me whether solubility kinetic is at least 500 µM here: CNS(=O)(=O)N1CC[C@H](N2CCc3c(-c4cnc(N)nc4)nc(N4CCOCC4)nc32)C1
0

Tell me whether solubility kinetic is at least 500 µM here: C[C@]1(N2CCc3c(-c4cnc(N)nc4)nc(N4CCOCC4)nc32)CCN(S(C)(=O)=O)C1
1

Tell me whether solubility kinetic is at least 500 µM here: COC(=O)N1CC[C@H](N2CCc3c(-c4cnc(N)nc4)nc(N4CCOCC4)nc32)C1
0

Tell me whether solubility kinetic is at least 500 µM here: Nc1ncc(-c2nc(N3CCOCC3)nc3c2CCN3[C@H]2CCNC2)cn1
0

Tell me whether solubility kinetic is at least 500 µM here: CC(C)(C)OC(=O)N1CC[C@](C)(N2CCc3c(-c4cnc(N)nc4)nc(N4CCOCC4)nc32)C1
0

* * *

experimental-details: Apparent intrinsic clearance in human liver microsomes
Format: ADME, Microsome
recorded-conditions: read-out: CLH(app)
property: log10(microsomal CLint) (log10 of the value in µL/min/mg)
Values reflect log10 of reported microsomal CLint (µL/min/mg).

Sample answers from the record:
compound-smiles	log10(microsomal CLint)
CC(C)(C)OC(=O)N1CC[C@](CO)(Nc2cc(-c3cnc(N)nc3)nc(N3CCOCC3)n2)C1	2.15
CNS(=O)(=O)N1CC[C@](C)(N2CCc3c(-c4cnc(N)nc4)nc(N4CCOCC4)nc32)C1	1.30
CC(C)(C)OC(=O)N1CC[C@](C)(Nc2cc(-c3cnc(N)nc3)nc(N3CCOCC3)n2)C1	2.04
CC(C)C(=O)N1CC[C@](C)(N2CCc3c(-c4cnc(N)nc4)nc(N4CCOCC4)nc32)C1	1.66
COC(=O)N1CC[C@](CO)(Nc2cc(-c3cnc(N)nc3)nc(N3CCOCC3)n2)C1	1.11
CC(C)(C)OC(=O)N1CC[C@](C)(N2CCc3c(-c4cnc(N)nc4)nc(N4CCOCC4)nc32)C1	2.20
CC(C)C(=O)N1CC[C@](CO)(Nc2cc(-c3cnc(N)nc3)nc(N3CCOCC3)n2)C1	1.23
CC(C)(O)C(=O)N1CC[C@](C)(N2CCc3c(-c4cnc(N)nc4)nc(N4CCOCC4)nc32)C1	1.20
Nc1ncc(-c2nc(N3CCOCC3)nc3c2CCN3[C@H]2CCNC2)cn1	1.11
Nc1ncc(-c2cc(N[C@@]3(CO)CCN(C(=O)OCC(F)F)C3)nc(N3CCOCC3)n2)cn1	1.23

Give me measured log10(microsomal CLint), please, for this molecule: COC(=O)N1CC[C@](C)(N2CCc3c(-c4cnc(N)nc4)nc(N4CCOCC4)nc32)C1
1.46

Give me measured log10(microsomal CLint), please, for this molecule: C[C@]1(N2CCc3c(-c4cnc(N)nc4)nc(N4CCOCC4)nc32)CCN(S(C)(=O)=O)C1
1.56

* * *

The entries below come with measured pIC50 values attached.
system-tested: Phosphatidylinositol 4,5-bisphosphate 3-kinase catalytic subunit beta isoform (Homo sapiens, UniProt P42338)
Sequence (P42338 whole entry, canonical isoform): as the sequence (P42338 whole entry) above
experimental-details: Inhibition of recombinant human N-terminal Myr signal and C-terminal Flag-tagged PI3K p110beta expressed in rat Rat1 cells
Worth noting: pIC50 values are minus log10 of concentrations stated in mol/L.

Sample answers from the record:
compound-smiles	pIC50
C[C@]1(N2CCc3c(-c4cnc(N)nc4)nc(N4CCOCC4)nc32)CCN(S(C)(=O)=O)C1	6.82
CC(C)(C)OC(=O)N1CC[C@](C)(Nc2cc(-c3cnc(N)nc3)nc(N3CCOCC3)n2)C1	5.30
CC(C)C(=O)N1CC[C@](C)(N2CCc3c(-c4cnc(N)nc4)nc(N4CCOCC4)nc32)C1	6.59
CNC(=O)N1CC[C@](C)(N2CCc3c(-c4cnc(N)nc4)nc(N4CCOCC4)nc32)C1	6.39
COC(=O)N1CC[C@](CO)(Nc2cc(-c3cnc(N)nc3)nc(N3CCOCC3)n2)C1	5.74
Nc1ncc(-c2nc(N3CCOCC3)nc(N[C@@]3(CO)CCN(C(=O)OCC(F)F)C3)c2F)cn1	6.44

Give me measured pIC50, please, for this compound: CC(C)(C)OC(=O)N1CC[C@](C)(N2CCc3c(-c4cnc(N)nc4)nc(N4CCOCC4)nc32)C1
6.19

Give me measured pIC50, please, for this compound: COC(=O)N1CC[C@](C)(N2CCc3c(-c4cnc(N)nc4)nc(N4CCOCC4)nc32)C1
7.35
